# Test system: HIV
# method summary: MT4 assay: antiviral HIV activity (cell protection, cell titer glo readout at 96 hours)
# Format: cell-based
# test conditions: Human immunodeficiency virus 1, MT4, 96 h, MT4 cells, cell titer glo readout at 96 hours, 10 point dose response; read-out: HIV MT4 Assay IC50
The threshold is 20 nM. Values of IC50 beneath it are tagged fulfilled; values meeting or exceeding it are tagged not fulfilled.

Could you please tell me whether IC50 recorded for Cc1nc2c(cc(-c3ccnc(N4CCCN(S(C)(=O)=O)CC4)c3)n2C)c(-c2cc(F)c3c(c2C)CCCO3)c1[C@H](OC(C)(C)C)C(=O)O (atropisomer, axis not shown) is less than 20 nM?
fulfilled

Lab note: confirm whether the reported IC50 for this compound is below 20 nM, equality not counting. compound: Cc1nc2c(cc(-c3nnc(N4CC[C@@H](F)C4)o3)n2C)c(-c2cc(F)c3c(c2C)CCCO3)c1[C@H](OC(C)(C)C)C(=O)O
fulfilled

Answer whether the compound Cc1nc2c(cc(-c3ccnc(-c4ccc5c(c4)CCN(C4COC4)C5)c3)n2C)c(-c2cc(F)c3c(c2C)CCCO3)c1[C@H](OC(C)(C)C)C(=O)O (atropisomer, axis not shown) has IC50 strictly less than 20 nM
fulfilled

Determine if Cc1nc2c(cc(-c3ccnc(N4CCCN(C5(C)COC5)CC4)c3)n2C)c(-c2cc(F)c3c(c2C)CCCO3)c1[C@H](OC(C)(C)C)C(=O)O (atropisomer, axis not shown) shows IC50 strictly lower than 20 nM.
fulfilled

Just wondering, is IC50 of Cc1nc2c(cc(C(=O)N3CCn4cnnc4C3)n2C)c(-c2cc(F)c3c(c2C)CCCO3)c1[C@H](OC(C)(C)C)C(=O)O below 20 nM?
not fulfilled

Take the compound Cc1nc2c(cc(-c3ccnc(-c4ccncc4)c3)n2C)c(-c2cc(F)c3c(c2C)CCCO3)c1[C@H](OC(C)(C)C)C(=O)O (atropisomer, axis not shown) and say whether its IC50 is less than 20 nM.
fulfilled

Is IC50 of Cc1nc2c(cc(C(=O)N3CCC(Oc4ccc(C#N)cc4)CC3)n2C)c(-c2cc(F)c3c(c2C)CCCO3)c1[C@H](OC(C)(C)C)C(=O)O strictly below 20 nM?
not fulfilled

Threshold test, IC50 < 20 nM: Cc1nc2c(cc(-c3nnc(N4CCC(C)CC4)o3)n2C)c(-c2cc(F)c3c(c2C)CCCO3)c1[C@H](OC(C)(C)C)C(=O)O
fulfilled

Does Cc1nc2c(cc(C(=O)NC(C)(C)C)n2C)c(-c2cc(F)c3c(c2C)CCCO3)c1[C@H](OC(C)(C)C)C(=O)O have IC50 strictly under 20 nM?
not fulfilled

Is IC50 of CC(=O)N1CCN(c2cc(-c3cc4c(-c5cc(F)c6c(c5C)CCCO6)c([C@H](OC(C)(C)C)C(=O)O)c(C)nc4n3C)ccn2)CC1 (atropisomer, axis not shown) strictly below 20 nM?
not fulfilled

Check if IC50 falls below 20 nM for Cc1nc2c(cc(-c3nsc(N4CCN(C5CCOCC5)CC4)n3)n2C)c(-c2cc(F)c3c(c2C)CCCO3)c1[C@H](OC(C)(C)C)C(=O)O .
fulfilled

Consider Cc1nc2c(cc(-c3cnn(C4CCN(C5COC5)CC4)c3)n2C)c(-c2cc(F)c3c(c2C)CCCO3)c1[C@H](OC(C)(C)C)C(=O)O (atropisomer, axis not shown) . Does its IC50 lie strictly below 20 nM?
not fulfilled

Consider the compound Cc1nc2c(cc(C(=O)NCc3ccccn3)n2C)c(-c2cc(F)c3c(c2C)CCCO3)c1[C@H](OC(C)(C)C)C(=O)O . Is its IC50 strictly less than 20 nM?
not fulfilled

IC50 under 20 nM? Item: Cc1nc2c(cc(-c3nnc(N4CCN(C5CCOCC5)CC4)o3)n2C)c(-c2cc(F)c3c(c2C)CCCO3)c1[C@H](OC(C)(C)C)C(=O)O (atropisomer, axis not shown; (M))
fulfilled

Is IC50 of Cc1nc2c(cc(-c3nc(N4C[C@@H](C)O[C@@H](C)C4)no3)n2C)c(-c2cc(F)c3c(c2C)CCCO3)c1[C@H](OC(C)(C)C)C(=O)O (atropisomer, axis not shown; (M)) strictly below 20 nM?
fulfilled

Could you please tell me whether IC50 recorded for Cc1nc2c(cc(-c3ccc4c(cnn4C)c3)n2C)c(-c2cc(F)c3c(c2C)CCCO3)c1[C@H](OC(C)(C)C)C(=O)O (atropisomer, axis not shown) is less than 20 nM?
not fulfilled

Just wondering, is IC50 of Cc1nc2c(cc(-c3nc(-c4ccc5c(cnn5C)c4)nn3C)n2C)c(-c2cc(F)c3c(c2C)CCCO3)c1[C@H](OC(C)(C)C)C(=O)O below 20 nM?
not fulfilled

Consider Cc1nc2c(cc(-c3ccnc(-c4ccn5cc(C(F)(F)F)nc5c4)c3)n2C)c(-c2cc(F)c3c(c2C)CCCO3)c1[C@H](OC(C)(C)C)C(=O)O (atropisomer, axis not shown) . Does its IC50 lie strictly below 20 nM?
not fulfilled

Lab log: compare recorded IC50 with 20 nM; is it strictly lower for Cc1nc2c(cc(-c3ccnc(C#CC4(O)CCCCC4)c3)n2C)c(-c2cc(F)c3c(c2C)CCCO3)c1[C@H](OC(C)(C)C)C(=O)O (atropisomer, axis not shown) ?
not fulfilled

Given Cc1nc2c(cc(-c3ccnc(C#CCN4CCOCC4)c3)n2C)c(-c2cc(F)c3c(c2C)CCCO3)c1[C@H](OC(C)(C)C)C(=O)O (atropisomer, axis not shown) , is recorded IC50 strictly lower than 20 nM?
not fulfilled

Check if IC50 falls below 20 nM for Cc1nc2c(cc(-c3ccnc(N4CCCN(C)CC4)c3)n2C)c(-c2cc(F)c3c(c2C)CCCO3)c1[C@H](OC(C)(C)C)C(=O)O (atropisomer, axis not shown) .
not fulfilled

###

# Tested on: HIV
# method summary: MT4 assay: antiviral HIV activity (cell protection, cell titer glo readout at 96 hours)
# Assay type: cell-based
# test conditions: Human immunodeficiency virus 1, MT4, 96 h, MT4 cells, cell titer glo readout at 96 hours, 10 point dose response; read-out: HIV MT4 Assay IC50
pIC50: −log10 of the molar value.
Threshold rule: pIC50 greater than or equal to 8 is true (1); below that, false (0).

# bool: pIC50 of Cc1nc2c(cc(C(=O)N(CCC(C)C)CCC(C)C)n2C)c(-c2cc(F)c3c(c2C)CCCO3)c1[C@H](OC(C)(C)C)C(=O)O >= 8
false (0)

Answer whether pIC50 of Cc1nc2c(cc(CCC(=O)NCc3ccc(F)cc3)n2C)c(-c2cc(F)c3c(c2C)CCCO3)c1[C@H](OC(C)(C)C)C(=O)O (atropisomer, axis not shown; (M)) is greater than or equal to 8.
false (0)

Check this compound for pIC50 at or above 8: Cc1nc2c(cc(-c3ccnc(-c4cnc5[nH]ccc5c4)c3)n2C)c(-c2cc(F)c3c(c2C)CCCO3)c1[C@H](OC(C)(C)C)C(=O)O (atropisomer, axis not shown)
true (1)

Hi, just wondering whether Cc1nc2c(cc(C(=O)NCCC(C)C)n2C)c(-c2cc(F)c3c(c2C)CCCO3)c1[C@H](OC(C)(C)C)C(=O)O shows pIC50 of 8 or higher.
true (1)

Does Cc1nc2c(cc(-c3ccnc(CNc4ccccn4)c3)n2C)c(-c2cc(F)c3c(c2C)CCCO3)c1[C@H](OC(C)(C)C)C(=O)O have a reported pIC50 of at least 8?
false (0)

Test whether the compound Cc1nc2c(cc(C(=O)NCc3ccncc3)n2C)c(-c2cc(F)c3c(c2C)CCCO3)c1[C@H](OC(C)(C)C)C(=O)O records pIC50 of 8 or higher.
false (0)

# bool: pIC50 of CSCCNC(=O)c1cc2c(-c3cc(F)c4c(c3C)CCCO4)c([C@H](OC(C)(C)C)C(=O)O)c(C)nc2n1C >= 8
false (0)

Record Cc1nc2c(cc(C(=O)N3CCc4ccccc4C3)n2C)c(-c2cc(F)c3c(c2C)CCCO3)c1[C@H](OC(C)(C)C)C(=O)O ; criterion: pIC50 no lower than 8. Met?
true (1)

Could you verify whether the entry Cc1nc2c(cc(-c3ccnc(-c4ccnc(N5CCN(C)CC5)c4)c3)n2C)c(-c2cc(F)c3c(c2C)CCCO3)c1[C@H](OC(C)(C)C)C(=O)O (atropisomer, axis not shown) shows pIC50 of no less than 8?
true (1)

Given the entry Cc1nc2c(cc(C(=O)N3CCC4(CC3)C(=O)NC(=O)N4C)n2C)c(-c2cc(F)c3c(c2C)CCCO3)c1[C@H](OC(C)(C)C)C(=O)O , answer whether its pIC50 meets or surpasses 8.
false (0)

Is reported pIC50 greater than or equal to 8 here: Cc1nc2c(cc(-c3ccnc(-c4cnc(N5CCN(C)CC5)nc4)c3)n2C)c(-c2cc(F)c3c(c2C)CCCO3)c1[C@H](OC(C)(C)C)C(=O)O (atropisomer, axis not shown)
true (1)

Is reported pIC50 greater than or equal to 8 here: Cc1nc2c(cc(C(=O)N3CCCC3)n2C)c(-c2cc(F)c3c(c2C)CCCO3)c1[C@H](OC(C)(C)C)C(=O)O
false (0)

Assess whether reported pIC50 for Cc1nc2c(cc(-c3ccnc(-c4ccc5ncccc5c4)c3)n2C)c(-c2cc(F)c3c(c2C)CCCO3)c1[C@H](OC(C)(C)C)C(=O)O (atropisomer, axis not shown) sits at 8 or higher.
true (1)

API: above_or_equal(metric=pIC50, cutoff=8) for item Cc1nc2c(cc(C(=O)N3CCN(C(=O)C4CCCCC4)CC3)n2C)c(-c2cc(F)c3c(c2C)CCCO3)c1[C@H](OC(C)(C)C)C(=O)O
false (0)

Hello, the source for this data is patent US20150191469A1, in case you need it.
